# Test system: HepG2
# protocol.text: Cytotoxicity assay
# Format: cell-based, human
# reported.conditions: human, HepG2 cells (ATCC CRL-10741)
parameter: selectivity ratio at 96 h

Briefly, selectivity ratio at 96 h measured for CNC(=O)c1ccc(-c2cnn3ccc(C(=O)N(C)c4ccc(Cl)c(C(=O)OC)c4)cc23)cc1 : > 500

====

pIC50: −log10 of the molar value.
As a worked illustration, we turn to pIC50 data collected for hERG (Homo sapiens).

INSERT INTO measurements (compound, endpoint_result) VALUES
  ('CN(C(=O)c1ccn2ncc(-c3ccc(C(N)=O)cc3)c2c1)c1ccc(C#N)cn1 [KDU731, reference compound]', '< 4.52');

Continue with the compound presented below.
The value of pIC50 measured for the compound CNC(=O)c1ccc(-c2cnn3ccc(C(=O)N(C)c4ccc(Cl)c(C(=O)OC)c4)cc23)cc1 turned out to be < 4.52
